The measurements presented in this section are drawn from patent US9944618B2.

target: human dopamine transporter (Homo sapiens (Human)); assay: Human DAT (dopamine transporter) uptake assay; format: cell-based; settings: read-out: hDAT Ki
Sequence (Q01959 whole entry): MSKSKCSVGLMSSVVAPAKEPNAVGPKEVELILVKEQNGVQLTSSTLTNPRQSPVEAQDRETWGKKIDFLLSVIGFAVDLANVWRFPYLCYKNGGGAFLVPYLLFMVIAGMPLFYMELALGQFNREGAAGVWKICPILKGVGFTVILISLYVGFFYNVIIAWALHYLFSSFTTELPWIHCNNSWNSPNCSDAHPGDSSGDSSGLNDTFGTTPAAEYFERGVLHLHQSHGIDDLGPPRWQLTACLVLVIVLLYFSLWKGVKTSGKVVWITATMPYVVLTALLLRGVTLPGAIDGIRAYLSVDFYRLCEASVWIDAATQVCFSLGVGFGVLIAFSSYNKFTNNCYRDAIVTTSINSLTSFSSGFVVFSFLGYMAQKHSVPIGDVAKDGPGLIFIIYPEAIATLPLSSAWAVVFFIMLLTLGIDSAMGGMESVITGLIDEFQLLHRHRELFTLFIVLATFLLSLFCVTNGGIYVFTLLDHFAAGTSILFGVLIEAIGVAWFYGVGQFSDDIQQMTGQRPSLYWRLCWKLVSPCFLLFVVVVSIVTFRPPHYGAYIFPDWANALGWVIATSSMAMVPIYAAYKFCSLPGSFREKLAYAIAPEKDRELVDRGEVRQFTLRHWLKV
valueKind: log10 of Ki (log10 of the value in nM)
Please note: log10 values; quantity Ki; unit nM.

Example cases with answers are listed next.
molecule: CNC[C@H](c1ccc(Cl)c(Cl)c1)[C@@H](O)c1cccc(N)c1
log10 of Ki: 1.89
--
molecule: CNC[C@H](c1ccc(Cl)c(Cl)c1)[C@H](O)c1cccc(Br)c1
log10 of Ki: 1.33
--
molecule: CNC[C@H](c1ccc2ccccc2c1)[C@H](O)c1ccc(Cl)s1 (single isomer, unassigned)
log10 of Ki: 2.10
--
molecule: CNCC(Cc1cccnc1)c1ccc2ccccc2c1 (centres unmarked) [Compound 48]
log10 of Ki: 1.89
--
molecule: CNC[C@@H](c1ccc(Cl)c(Cl)c1)[C@@H](O)c1cccc(N2CCOCC2)c1
log10 of Ki: 1.81

Query: What value of log10 of Ki has been recorded for this entry: `CNC[C@H](c1ccc2ccccc2c1)[C@H](O[C@H](C)C(=O)N1CCCC1)c1ccccc1`
Response: 3.13

Query: Find the recorded log10 of Ki belonging to `CNC[C@@H](c1ccc(Cl)c(Cl)c1)[C@@H](O)c1cccc(NS(=O)(=O)C(F)(F)F)c1` and report it.
Response: 0.70

Query: Item `CNC[C@H](c1ccc(Cl)c(Cl)c1)[C@@H](O)c1cccc(NC(C)=O)c1` has what recorded log10 of Ki?
Response: 1.72
